Biological target: T1, GFP-9S library array, motif 4 ND N98R;D124N (synthetic construct, N98R;D124N)
T1 chain: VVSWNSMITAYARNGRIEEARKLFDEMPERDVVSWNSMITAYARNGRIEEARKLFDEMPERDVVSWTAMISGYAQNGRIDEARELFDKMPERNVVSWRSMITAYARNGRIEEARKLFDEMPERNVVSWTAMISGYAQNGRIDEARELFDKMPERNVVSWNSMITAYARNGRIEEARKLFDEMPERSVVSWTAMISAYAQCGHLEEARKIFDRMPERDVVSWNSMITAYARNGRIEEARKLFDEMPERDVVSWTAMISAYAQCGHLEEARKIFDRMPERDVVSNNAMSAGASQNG
Experiment: high-throughput RNA pulldown from lysate on Ni-NTA beads; HRP: 50 mM Tris pH 8, 150 mM NaCl, 1 mM beta-mercaptoethanol, 50 ug/ml BSA, 3 ug/ml yeast RNA, 0.5% heparin; ITC and FP: Tris pH 8, 200 mM KCl, 5% glycerol; MST: 50 mM Tris pH 8, 200 mM NaCl, 1 mM DTT, BSA, heparin, 0.05% Tween 20
Conditions: tags: N-terminal His-eGFP; label: 5' IRDye 800CW
experimentalEndpoint: Kd (µM)
Note: unit µM is implicit; provide only the numeric part.

binder: AUUAUACGUGA (ssRNA) [IR-rpoA-U]
valueUnit: µM
Kd: 0.0959

Q. Recorded Kd for AUUAAACGUGA (ssRNA) [IR-rpoA-A] , please?
A. 0.2
